Each item that follows carries a reported inhibition in vivo at 20 mg/kg.
# Tested on: Rattus norvegicus
# method-description: Antiinflammatory activity in Wistar rat assessed as inhibition of carrageenan-induced paw edema at 20 mg/kg, po administered prior to carrageenan challenge measured after 1 hrs post carrageenan challenge
# Format: functional

Here's what some known entries look like.
I'd like to know its inhibition in vivo at 20 mg/kg. The compound in question is "COC(=O)[C@@H]1Cc2c([nH]c3ccccc23)[C@@H](C[C@H]2OC[C@@H](N)[C@@H](C)O2)N1"
26.3%

I'd like to know its inhibition in vivo at 20 mg/kg. The compound in question is "COC(=O)[C@@H]1Cc2c([nH]c3ccccc23)[C@H](C[C@H]2OC[C@@H](N)[C@@H](C)O2)N1"
15.8%

I'd like to know its inhibition in vivo at 20 mg/kg. The compound in question is "COC(=O)[C@@H]1Cc2c([nH]c3ccccc23)[C@@H](C[C@H]2OC[C@@H](NC(=O)Cc3ccccc3)[C@@H](C)O2)N1"
39.5%

I'd like to know its inhibition in vivo at 20 mg/kg. The compound in question is "COC(=O)[C@@H]1Cc2c([nH]c3ccccc23)[C@H](C[C@H]2OC[C@@H](NC(=O)Cc3ccccc3)[C@@H](C)O2)N1"
28.9%

I'd like to know its inhibition in vivo at 20 mg/kg. The compound in question is "C[C@H]1O[C@@H](C[C@H]2NCCc3c2[nH]c2ccccc32)OC[C@H]1NC(=O)Cc1ccccc1"
34.2%

I'd like to know its inhibition in vivo at 20 mg/kg. The compound in question is "COc1ccc2[nH]c3c(c2c1)CCN[C@@H]3C[C@H]1OC[C@@H](NC(=O)Cc2ccccc2)[C@@H](C)O1"
44.7%

I'd like to know its inhibition in vivo at 20 mg/kg. The compound in question is "C[C@H]1O[C@@H](C[C@H]2NCCc3c2[nH]c2ccccc32)OC[C@H]1N"
21%

I'd like to know its inhibition in vivo at 20 mg/kg. The compound in question is "COC(C[C@H]1OC[C@@H](NC(=O)Cc2ccccc2)[C@@H](C)O1)OC"
23.6%

I'd like to know its inhibition in vivo at 20 mg/kg. The compound in question is "COc1ccc2c(c1)c(CC(=O)O)c(C)n2C(=O)c1ccc(Cl)cc1"
47.3%

I'd like to know its inhibition in vivo at 20 mg/kg. The compound in question is "C[C@H]1O[C@@H](CC=O)OC[C@H]1NC(=O)Cc1ccccc1"
18.4%

For the next question, use this compound.
I'd like to know its inhibition in vivo at 20 mg/kg. The compound in question is "COc1ccc2[nH]c3c(c2c1)CCN[C@@H]3C[C@H]1OC[C@@H](N)[C@@H](C)O1"
31.5%
